For each of the compounds below, state its relative viability.
Test system: HOP-62
test.method.notes: relative viability (nuclei count vs DMSO), 5 days (fraction); higher = more cells survive
experimental.setup: first compound 4 µM
Give bare numbers.

compound	relative viability
COc1cc(N2CCC(C(N)=O)CC2)ccc1Nc1nc(N)c(Cl)c(Nc2ccccc2S(=O)(=O)C(C)C)n1 [HG-5-88-01] + CC1(C)CCC(c2ccc(Cl)cc2)=C(CN2CCN(c3ccc(C(=O)NS(=O)(=O)c4ccc(N[C@H](CCN5CCOCC5)CSc5ccccc5)c(S(=O)(=O)C(F)(F)F)c4)cc3)CC2)C1 [Navitoclax] (partner 0.5 µM)	1.01
COc1cc(N2CCC(C(N)=O)CC2)ccc1Nc1nc(N)c(Cl)c(Nc2ccccc2S(=O)(=O)C(C)C)n1 [HG-5-88-01] + Cc1nc(NC(=O)N2CCC[C@H]2C(N)=O)sc1-c1ccnc(C(C)(C)C(F)(F)F)c1 [Alpelisib] (partner 2 µM)	1.41
COc1cc(N2CCC(C(N)=O)CC2)ccc1Nc1nc(N)c(Cl)c(Nc2ccccc2S(=O)(=O)C(C)C)n1 [HG-5-88-01] + CS(=O)(=O)CCNCc1ccc(-c2ccc3ncnc(Nc4ccc(OCc5cccc(F)c5)c(Cl)c4)c3c2)o1 [Lapatinib] (partner 2 µM)	0.893
C[C@@H]1CN(CC(=O)Nc2ccc3c(c2)Cc2cccc(-c4cc(=O)cc(N5CCOCC5)o4)c2S3)C[C@H](C)O1 + COc1cc2c(Oc3ccc(NC(=O)C4(C(=O)Nc5ccc(F)cc5)CC4)cc3F)ccnc2cc1OCCCN1CCOCC1 [Foretinib] (partner 0.25 µM)	0.9
COc1cc(N2CCC(C(N)=O)CC2)ccc1Nc1nc(N)c(Cl)c(Nc2ccccc2S(=O)(=O)C(C)C)n1 [HG-5-88-01] + Nc1nc2[nH]cc(CCc3ccc(C(=O)N[C@@H](CCC(=O)O)C(=O)O)cc3)c2c(=O)[nH]1 [Pemetrexed] (partner 0.2 µM)	0.341
COc1cc(N2CCC(C(N)=O)CC2)ccc1Nc1nc(N)c(Cl)c(Nc2ccccc2S(=O)(=O)C(C)C)n1 [HG-5-88-01] + Nc1ncn([C@H]2C[C@H](O)[C@@H](CO)O2)c(=O)n1 [Decitabine] (partner 2 µM)	0.28
Clc1ccc(Nc2nnc(Cc3ccncc3)c3ccccc23)cc1 [Vatalanib] + COc1cc2c(Oc3ccc(NC(=O)C4(C(=O)Nc5ccc(F)cc5)CC4)cc3F)ccnc2cc1OCCCN1CCOCC1 [Foretinib] (partner 0.25 µM)	1.12
C[C@@H]1CN(CC(=O)Nc2ccc3c(c2)Cc2cccc(-c4cc(=O)cc(N5CCOCC5)o4)c2S3)C[C@H](C)O1 + Nc1ncn([C@H]2C[C@H](O)[C@@H](CO)O2)c(=O)n1 [Decitabine] (partner 2 µM)	0.245

Form: item Clc1ccc(Nc2nnc(Cc3ccncc3)c3ccccc23)cc1 [Vatalanib] + NC(=O)Nc1cc(-c2cccc(F)c2)sc1C(=O)N[C@H]1CCCNC1 [AZD7762] (partner 0.2 µM) ; test system HOP-62; relative viability: 0.681

---

For each of the compounds below, state its relative viability.
System: NCI-H1755
test.method.notes: relative viability (nuclei count vs DMSO), 5 days (fraction); higher = more cells survive
experimental.setup: first compound 0.1265 µM
Answers are plain numbers.

compound	relative viability
COc1cc(N2CCC(C(N)=O)CC2)ccc1Nc1nc(N)c(Cl)c(Nc2ccccc2S(=O)(=O)C(C)C)n1 [HG-5-88-01] + N=C(N)NC(=N)NCCc1ccccc1 [Phenformin] (partner 250 µM)	0.612

The value of relative viability measured for the compound COc1cc(N2CCC(C(N)=O)CC2)ccc1Nc1nc(N)c(Cl)c(Nc2ccccc2S(=O)(=O)C(C)C)n1 [HG-5-88-01] + COc1cc2c(Oc3ccc(NC(=O)C4(C(=O)Nc5ccc(F)cc5)CC4)cc3F)ccnc2cc1OCCCN1CCOCC1 [Foretinib] (partner 0.25 µM) turned out to be 0.895
